# experimentalSystem: T1, full-length recombinant mouse PAD4 (mouse, UniProt Q9Z183 1-666)
# T1 construct: mature; Full-length recombinant
# T1 sequence (Q9Z183 whole entry): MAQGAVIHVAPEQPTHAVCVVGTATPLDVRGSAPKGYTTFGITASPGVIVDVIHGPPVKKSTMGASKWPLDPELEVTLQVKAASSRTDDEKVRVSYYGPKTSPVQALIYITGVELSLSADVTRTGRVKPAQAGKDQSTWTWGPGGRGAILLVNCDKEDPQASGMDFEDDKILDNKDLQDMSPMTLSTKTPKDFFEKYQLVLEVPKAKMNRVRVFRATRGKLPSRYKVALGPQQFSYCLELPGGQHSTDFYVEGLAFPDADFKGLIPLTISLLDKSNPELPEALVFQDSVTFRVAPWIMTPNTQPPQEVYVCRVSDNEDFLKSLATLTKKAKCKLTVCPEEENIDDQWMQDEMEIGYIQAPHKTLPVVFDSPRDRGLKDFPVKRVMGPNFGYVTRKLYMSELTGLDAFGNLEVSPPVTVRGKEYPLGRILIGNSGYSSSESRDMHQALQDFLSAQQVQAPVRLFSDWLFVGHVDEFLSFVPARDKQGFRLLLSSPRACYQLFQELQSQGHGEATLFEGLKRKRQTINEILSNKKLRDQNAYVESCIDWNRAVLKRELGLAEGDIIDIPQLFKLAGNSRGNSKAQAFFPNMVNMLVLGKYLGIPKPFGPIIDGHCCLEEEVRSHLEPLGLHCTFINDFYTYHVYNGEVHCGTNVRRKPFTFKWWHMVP
# assayRemarks: ELISA, coated mouse PAD4; antibody 0.0625 ug/mL
Recorded OD 490/630 nm by entry
Give your answer as a number; write no unit.

binder	measuredResult
A11 (antibody, V domains shown, Chicken variable regions in a mouse chimeric antibody (IgG1); also called anti-PAD4 antibody A11) VH: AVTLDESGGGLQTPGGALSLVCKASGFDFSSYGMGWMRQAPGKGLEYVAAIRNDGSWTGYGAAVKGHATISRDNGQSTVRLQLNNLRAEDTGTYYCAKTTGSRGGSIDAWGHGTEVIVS VL: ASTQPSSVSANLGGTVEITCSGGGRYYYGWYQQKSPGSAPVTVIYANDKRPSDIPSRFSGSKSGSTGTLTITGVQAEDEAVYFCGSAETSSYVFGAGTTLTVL	2.24
H7 (antibody, V domains shown, Chicken variable regions in a mouse chimeric antibody (IgG1); also called anti-PAD4 antibody H7) VH: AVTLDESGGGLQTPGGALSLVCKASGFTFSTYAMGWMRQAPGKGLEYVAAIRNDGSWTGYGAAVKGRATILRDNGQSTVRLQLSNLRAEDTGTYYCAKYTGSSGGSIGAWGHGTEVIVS VL: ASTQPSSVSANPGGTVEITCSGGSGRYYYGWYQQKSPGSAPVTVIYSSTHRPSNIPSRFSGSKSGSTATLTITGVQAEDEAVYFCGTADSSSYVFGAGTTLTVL	2.29
E9 (antibody, V domains shown, Chicken variable regions in a mouse chimeric antibody (IgG1); also called anti-PAD4 antibody E9) VH: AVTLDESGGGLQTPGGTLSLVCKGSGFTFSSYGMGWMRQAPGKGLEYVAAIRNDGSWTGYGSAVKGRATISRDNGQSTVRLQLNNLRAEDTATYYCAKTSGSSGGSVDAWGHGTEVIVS VL: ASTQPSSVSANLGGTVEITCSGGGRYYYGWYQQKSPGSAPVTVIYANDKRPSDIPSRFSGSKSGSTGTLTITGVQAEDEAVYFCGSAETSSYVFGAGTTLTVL	2.19
G9 (antibody, V domains shown, Chicken variable regions in a mouse chimeric antibody (IgG1); also called anti-PAD4 antibody G9) VH: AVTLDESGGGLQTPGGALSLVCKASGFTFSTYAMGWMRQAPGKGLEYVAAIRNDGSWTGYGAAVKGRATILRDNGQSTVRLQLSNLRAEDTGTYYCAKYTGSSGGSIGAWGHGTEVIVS VL: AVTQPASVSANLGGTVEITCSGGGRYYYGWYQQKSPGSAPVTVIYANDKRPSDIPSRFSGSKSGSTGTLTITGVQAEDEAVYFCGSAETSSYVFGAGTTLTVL	2.24

Query: Which OD 490/630 nm is listed for G8 (antibody, V domains shown, Chicken variable regions in a mouse chimeric antibody (IgG1); also called anti-PAD4 antibody G8) VH: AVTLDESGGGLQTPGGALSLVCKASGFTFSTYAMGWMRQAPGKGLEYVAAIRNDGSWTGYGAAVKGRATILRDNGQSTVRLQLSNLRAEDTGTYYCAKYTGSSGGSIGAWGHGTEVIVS VL: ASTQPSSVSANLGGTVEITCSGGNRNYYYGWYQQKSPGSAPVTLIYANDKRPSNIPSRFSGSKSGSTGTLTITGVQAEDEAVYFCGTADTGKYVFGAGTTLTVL ?
Result: 2.22

Query: G6 (antibody, V domains shown, Chicken variable regions in a mouse chimeric antibody (IgG1); also called anti-PAD4 antibody G6) VH: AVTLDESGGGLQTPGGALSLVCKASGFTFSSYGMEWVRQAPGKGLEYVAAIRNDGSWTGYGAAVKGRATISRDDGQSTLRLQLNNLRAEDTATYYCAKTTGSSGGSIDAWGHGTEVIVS VL: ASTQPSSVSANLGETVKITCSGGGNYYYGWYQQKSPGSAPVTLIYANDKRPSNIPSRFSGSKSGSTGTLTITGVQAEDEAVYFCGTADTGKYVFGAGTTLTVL , same question.
Result: 2.16

Each recorded value in this set is attributed to patent US20180044434A1.
